system: Echinochloa crus-galli; assay: Pre-emergence herbicidal effect; format: in vivo; conditions: Dosage 80 g/ha, scored visually after 3 weeks
Rule: ECHCG pre-emergence efficacy (herbicidal activity) of 90% or more gives satisfied; anything lower gives not satisfied.

INSERT INTO measurements (compound, assigned_category) VALUES
  ('CS(=O)(=O)c1cnc(NC2CCCc3sc(Cl)cc32)nc1N (racemic) [compound 42]', 'satisfied'),
  ('Nc1nc(NC2CCc3sccc32)ncc1C(F)(F)F (racemic) [compound 215]', 'not satisfied'),
  ('CC(=O)c1cnc(NC2CCCc3sccc32)nc1N (centres unmarked) [compound 301]', 'not satisfied'),
  ('CS(=O)(=O)c1cnc(NC2CCCc3cc(Cl)sc32)nc1N (racemic) [compound 53]', 'satisfied'),
  ('Cc1cc2c(s1)C(Nc1ncc(S(C)(=O)=O)c(N)n1)CCC2 (racemic) [compound 19]', 'satisfied'),
  ('Cc1cc2c(s1)CCCC2Nc1ncc(C(F)(F)F)c(N)n1 (racemic) [compound 257]', 'satisfied'),
  ('Cc1cc2c(s1)CC(C)C2Nc1ncc(S(C)(=O)=O)c(N)n1 (racemic) [compound 17]', 'satisfied'),
  ('Cc1cc2c(s1)C(Nc1ncc(C(F)(F)F)c(N)n1)CCC2 (racemic) [compound 55]', 'satisfied'),
  ('Cc1cc2c(s1)CCCC2Nc1ncc(C#N)c(N)n1 (centres unmarked) [compound 282]', 'satisfied'),
  ('Nc1nc(NC2CCc3sc(Cl)cc32)ncc1C(F)(F)F (racemic) [compound 256]', 'satisfied'),
  ('Cc1cc2c(s1)CCCC2Nc1nc(N)c(Br)c(C(F)F)n1 (racemic) [compound 314]', 'not satisfied'),
  ('Nc1nc(NC2CCc3cc(Cl)sc32)ncc1C(F)(F)F (racemic) [compound 48]', 'satisfied'),
  ('Cc1cc2c(s1)CCCC2Nc1ncc(S(C)(=O)=O)c(N)n1 (racemic) [compound 59]', 'satisfied'),
  ('Cc1cc2c(s1)CCCC2Nc1nc(N)c([S+](C)[O-])c(C(C)F)n1 (racemic) [compound 309]', 'not satisfied'),
  ('Cc1cc2c(s1)CCCC2Nc1ncc(C#N)c(N)n1 (racemic) [compound 52]', 'not satisfied'),
  ('Cc1cc2c(s1)CCCC2Nc1nc(N)c(Br)c(C(F)F)n1 (racemic) [compound 284]', 'not satisfied'),
  ('CS(=O)(=O)c1cnc(N[C@@H]2CCCc3sccc32)nc1N [compound 24]', 'satisfied');

----------
test system: Matricaria inodora; test: Post-emergence herbicidal effect; type: in vivo; details: 80 g/ha, assessed visually after about 3 weeks vs untreated controls
The entries below are paired with their reported post-emergence efficacy MATIN.
EXPERIMENTAL_ENDPOINT: post-emergence efficacy MATIN (%)

INSERT INTO results (compound, recorded_result) VALUES
  ('Cc1cc2c(s1)CCCC2Nc1ncc(SC(F)(F)F)c(C)n1 (racemic)', 70),
  ('Cc1cc2c(s1)CCCC2Nc1nc(N)c([S+](C)[O-])c(C(F)F)n1 (racemic)', 80),
  ('Nc1nc(NC2CCc3sc(Cl)cc32)ncc1C(F)(F)F (racemic)', 100),
  ('C/C(=N\O)c1cnc(NC2CCCc3sc(Cl)cc32)nc1C (racemic)', 70),
  ('Cc1cc2c(s1)CCCC2Nc1ncc(C(N)=O)c(N)n1 (racemic)', 80),
  ('CNC(=O)c1cnc(NC2CCCc3sc(C)cc32)nc1N (racemic)', 60),
  ('CC(=NO)c1cnc(NC2CCCc3sc(C)cc32)nc1N (stereo not drawn) [compound 286]', 80),
  ('CC(=O)c1cnc(NC2CCCc3sc(C)cc32)nc1N (stereo not drawn) [compound 283]', 90),
  ('Cc1cc2c(s1)CCC[C@H]2Nc1ncc(C(F)(F)F)c(N)n1', 90),
  ('CS(=O)(=O)c1cnc(N[C@@H]2CCCc3sccc32)nc1N', 80),
  ('Cc1cc2c(s1)CCCC2Nc1ncc(C(F)(F)F)c(N)n1 (racemic) [compound 257]', 90),
  ('Cc1cc2c(s1)CCCC2Nc1ncc(C#N)c(N)n1 (racemic) [compound 52]', 60),
  ('Cc1cc2c(s1)CCCC2Nc1ncc(-c2cncc(C(F)(F)F)c2)c(N)n1 (racemic)', 80),
  ('Cc1cc2c(s1)CCCC2Nc1ncc(C(F)(F)F)c(N)n1 (racemic) [compound 11]', 90),
  ('CS(=O)(=O)c1cnc(NC2CCCc3sccc32)nc1N (racemic)', 80);
